Provide the recorded IC50 for the entries that follow.
# Tested on: Pano2 (murine pancreatic)
# Assay: Cancer cell cytotoxicity, CellTiter-Glo Luminescent Cell Viability Assay
# Assay setup: Mus musculus, PanO2, read-out: IC50 (μM) cancer cell cytotoxicity
Numbers only, in µM.

{"Molecule": "Clc1ccc(C(Cn2ccnc2)OCc2c(Cl)cccc2Cl)c(Cl)c1 (stereo not drawn)", "Target under test": "Pano2 (murine pancreatic)", "IC50, µM": 12.6}
{"Molecule": "NS(=O)(=O)NCCNc1nonc1C(=NO)Nc1ccc(F)c(Br)c1", "Target under test": "Pano2 (murine pancreatic)", "IC50, µM": 53.5}
{"Molecule": "C=C(c1ccccc1OCc1cccc(Cl)c1)n1ccnc1", "Target under test": "Pano2 (murine pancreatic)", "IC50, µM": 9.61}
{"Molecule": "Clc1ccc(C(Cn2ccnc2)OCc2ccc(Sc3ccccc3)cc2)c(Cl)c1 (stereo not drawn)", "Target under test": "Pano2 (murine pancreatic)", "IC50, µM": 16.1}

The following molecules each have a reported value; give each one's IC50.
1. Clc1ccc(C(Cn2ccnc2)OCc2csc3c(Cl)cccc23)c(Cl)c1 (stereo not drawn)
2. Clc1ccc(C(Cn2ccnc2)OCc2ccsc2Cl)c(Cl)c1 (stereo not drawn)

Out:
16.1
22.2
